Source listed as patent US20250042994A1.

Target: T1, human CD19 exon1-3-His tag protein (human, UniProt P15391 20-186, limits assumed)
T1 construct: membrane-distal part of the extracellular region, made in HEK293E cells; not shown: His tag
T1 sequence (looked up): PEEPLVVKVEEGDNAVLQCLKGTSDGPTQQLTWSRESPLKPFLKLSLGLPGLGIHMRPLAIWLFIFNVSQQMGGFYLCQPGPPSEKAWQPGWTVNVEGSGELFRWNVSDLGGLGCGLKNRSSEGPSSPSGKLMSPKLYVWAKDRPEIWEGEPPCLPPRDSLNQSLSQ
Test: ELISA, coated human CD19 exon 1-3-His
Measurement name: OD450 at 0.0001 nM (OD450)
Write the value in OD450 as a bare number.

Given item F3.121.4-L3H1 (antibody, mouse IgG1, kappa, V domains shown, humanized antibody of F3.121.4, VL3+VH1, murine IgG1 constant regions) VH: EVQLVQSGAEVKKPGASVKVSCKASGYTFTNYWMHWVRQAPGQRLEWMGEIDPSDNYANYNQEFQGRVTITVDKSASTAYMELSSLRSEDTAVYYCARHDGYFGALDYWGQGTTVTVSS VL: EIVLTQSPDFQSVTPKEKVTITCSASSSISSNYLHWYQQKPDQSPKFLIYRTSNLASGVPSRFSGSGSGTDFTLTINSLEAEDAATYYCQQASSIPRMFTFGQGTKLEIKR , the value recorded as its OD450 at 0.0001 nM is 0.05

Lookup result for F3.121.4-L1H1 (antibody, mouse IgG1, kappa, V domains shown, humanized antibody of F3.121.4, VL1+VH1, murine IgG1 constant regions) VH: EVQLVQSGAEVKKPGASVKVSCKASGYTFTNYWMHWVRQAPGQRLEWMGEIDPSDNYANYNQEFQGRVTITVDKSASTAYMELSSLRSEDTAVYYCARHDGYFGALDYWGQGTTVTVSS VL: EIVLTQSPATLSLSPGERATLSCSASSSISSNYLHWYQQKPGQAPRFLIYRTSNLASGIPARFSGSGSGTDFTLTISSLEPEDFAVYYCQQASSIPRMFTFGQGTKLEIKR ; measured OD450 at 0.0001 nM: 0.07

Per the records, this binder ( F3.121.4-L3H2 (antibody, mouse IgG1, kappa, V domains shown, humanized antibody of F3.121.4, VL3+VH2, murine IgG1 constant regions) VH: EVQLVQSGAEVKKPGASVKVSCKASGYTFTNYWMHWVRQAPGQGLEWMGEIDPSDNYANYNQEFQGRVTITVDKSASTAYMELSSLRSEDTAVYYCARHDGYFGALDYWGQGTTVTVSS VL: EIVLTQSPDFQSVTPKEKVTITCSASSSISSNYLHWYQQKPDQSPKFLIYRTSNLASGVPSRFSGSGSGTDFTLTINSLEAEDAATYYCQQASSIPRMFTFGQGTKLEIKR ) has OD450 at 0.0001 nM equal to 0.05

Lab note: F3.121.4 (antibody, human IgG1, V domains shown, human-murine chimeric antibody, human IgG1 constant; also called chimeric antibody F3.121.4) VH: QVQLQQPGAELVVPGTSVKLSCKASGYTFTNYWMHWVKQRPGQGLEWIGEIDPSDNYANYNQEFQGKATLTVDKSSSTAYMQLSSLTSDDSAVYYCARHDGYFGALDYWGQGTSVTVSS VL: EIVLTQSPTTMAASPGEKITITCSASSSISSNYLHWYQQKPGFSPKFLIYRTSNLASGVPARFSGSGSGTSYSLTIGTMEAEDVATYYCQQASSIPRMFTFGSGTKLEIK gave OD450 at 0.0001 nM of 0.05
